List of pIC50 tested on PLK2 (Homo sapiens).
Sequence (Q9NYY3 whole entry, species assumed): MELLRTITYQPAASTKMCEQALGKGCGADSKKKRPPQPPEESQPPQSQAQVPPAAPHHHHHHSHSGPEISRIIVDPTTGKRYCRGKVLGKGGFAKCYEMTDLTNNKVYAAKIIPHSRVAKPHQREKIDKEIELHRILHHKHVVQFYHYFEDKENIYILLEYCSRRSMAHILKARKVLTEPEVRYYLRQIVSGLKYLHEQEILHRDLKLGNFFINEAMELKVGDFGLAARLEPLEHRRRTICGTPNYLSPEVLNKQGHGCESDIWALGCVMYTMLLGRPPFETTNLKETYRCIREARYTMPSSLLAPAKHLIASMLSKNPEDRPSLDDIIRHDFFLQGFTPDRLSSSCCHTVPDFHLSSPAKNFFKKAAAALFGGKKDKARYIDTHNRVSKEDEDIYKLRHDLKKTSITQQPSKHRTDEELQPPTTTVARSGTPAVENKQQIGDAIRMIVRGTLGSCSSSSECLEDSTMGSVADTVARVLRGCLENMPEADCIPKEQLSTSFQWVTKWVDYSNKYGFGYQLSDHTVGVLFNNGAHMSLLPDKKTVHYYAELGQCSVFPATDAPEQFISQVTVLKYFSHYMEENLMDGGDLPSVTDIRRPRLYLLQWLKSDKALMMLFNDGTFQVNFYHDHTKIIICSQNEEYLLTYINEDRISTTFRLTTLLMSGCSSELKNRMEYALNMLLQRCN
pIC50: −log10 of the molar value.
assay endpoint: pIC50

COc1ccc2sc3c(c2c1)SCCCNC3=O | < 4.30
COc1ccc2sc3c(c2c1)SCCNC3=O | < 4.30
O=C1NCCCSc2c1sc1ccc(O)cc21 | 4.55
O=C1NCCSc2c1sc1ccc(O)cc21 | 4.41
O=C1NCCCc2c1[nH]c1ccc(O)cc21 | < 4.00
[N-]=[N+]=Nc1ccc2sc3c(c2c1)SCCNC3=O | < 4.30

---

tgt: PKD1 (Homo sapiens)
Sequence (Q15139 whole entry): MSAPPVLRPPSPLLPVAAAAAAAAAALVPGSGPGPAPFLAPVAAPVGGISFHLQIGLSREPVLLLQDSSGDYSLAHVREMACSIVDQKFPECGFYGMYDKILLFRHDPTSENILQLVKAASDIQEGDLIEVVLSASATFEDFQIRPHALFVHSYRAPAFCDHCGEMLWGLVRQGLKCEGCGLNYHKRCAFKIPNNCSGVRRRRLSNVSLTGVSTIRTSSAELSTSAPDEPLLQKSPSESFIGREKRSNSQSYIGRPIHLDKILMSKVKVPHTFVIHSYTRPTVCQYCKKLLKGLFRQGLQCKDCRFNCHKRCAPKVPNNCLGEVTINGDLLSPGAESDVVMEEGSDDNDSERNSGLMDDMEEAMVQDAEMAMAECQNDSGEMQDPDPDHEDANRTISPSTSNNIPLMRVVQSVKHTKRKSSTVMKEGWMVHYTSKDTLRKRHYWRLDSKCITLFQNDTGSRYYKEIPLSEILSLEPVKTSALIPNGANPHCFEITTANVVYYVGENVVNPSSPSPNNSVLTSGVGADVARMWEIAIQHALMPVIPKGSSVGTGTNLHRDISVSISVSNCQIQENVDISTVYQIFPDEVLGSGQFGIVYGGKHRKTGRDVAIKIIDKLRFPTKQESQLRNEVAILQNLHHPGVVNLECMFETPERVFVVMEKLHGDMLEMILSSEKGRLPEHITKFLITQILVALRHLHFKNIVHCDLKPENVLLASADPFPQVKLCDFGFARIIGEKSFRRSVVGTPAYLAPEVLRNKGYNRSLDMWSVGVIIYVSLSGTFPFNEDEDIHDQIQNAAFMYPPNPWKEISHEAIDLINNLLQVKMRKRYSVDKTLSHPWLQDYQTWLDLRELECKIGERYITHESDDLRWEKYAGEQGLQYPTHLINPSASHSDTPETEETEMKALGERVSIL
method notes: IMAP-FP PKD1 assay
Format: biochemical
assay endpoint: IC50 IMAP-FP PKD1

O=C1NCCC(=NOCc2ccccc2)c2c1oc1ccc(O)cc21 [kb-NB142-10] | not inhibitory
CC(=O)Nc1ccc2[nH]c3c(c2c1)CCNC3=O [kb-NB123-93] | not inhibitory
O=C1NCCc2c1[nH]c1ccc(OCc3ccccc3)cc21 [kb-NB123-52] | not inhibitory
O=C1NCCCc2c1oc1cc(Cl)c(O)c(Cl)c21 [kb-NB96-43] | not inhibitory
C=CCOc1ccc2oc3c(c2c1Cl)CCCNC3=O [kb-NB96-50] | not inhibitory
O=C1NCCCc2c1[nH]c1ccc(OCc3ccccc3)cc21 [kb-NB123-53] | not inhibitory
CC(=O)Nc1ccc2[nH]c3c(c2c1)CCCNC3=O [kb-NB123-94] | not inhibitory

Data origin, for the record: patent US9840515B2
